- Test system: ASPC1 cells
- METHOD: Inhibition of KRas-mediated phosphorylation of ERK (Cisbio HTRF pERK), ASPC1 cells
- Assay type: cell-based
- CONDITION_DESCRIPTION: Homo sapiens, ASPC1, 3 h, AsPC-1 cells; 3 hr compound incubation
Kindly state log10 IC50 for each of the entries shown.
Annotation: log10 of IC50, nM basis.

The molecule C[C@@]1(O)CCCN(c2nc(OC[C@@]34CCCN3C[C@H](F)C4)nc3c2CCN(c2ccc(F)c4sc(N)c(C#N)c24)C3)C1 [Example 711] showed log10 IC50 equal to 3.29

Short answer for C[C@@H]1C[C@@H]1c1c(Cl)cc(O)cc1N1CCc2c(nc(OC[C@@]34CCCN3C[C@H](F)C4)nc2N2CCCn3nc(C(=O)N(C)C)cc3C2)C1 (stereo in doubt) [Example 656] : log10 IC50 was 1.91

Item: C[C@@H]1C[C@@H]1c1c(Cl)cc(O)cc1N1CCc2c(nc(OC[C@@]34CCCN3C[C@H](F)C4)nc2N2CCC[C@]3(CNS(=O)(=O)N3)C2)C1 (stereo in doubt) [Example 654] | log10 IC50: 2.29

Value of log10 IC50 reported for the molecule C[C@@]1(O)COCCN(c2nc(OC[C@@]34CCCN3C[C@H](F)C4)nc3c2CCN(c2ccc(F)c4sc(N)c(C#N)c24)C3)C1 [Example 710] is 2.80

# molecule CCc1c(F)ccc2cc(O)cc(N3CCc4c(nc(OC[C@@]56CCCN5C[C@H](F)C6)nc4N4CCCN(CC(F)(F)F)CC4)C3)c12 [Example 649] ; its log10 IC50 = 3.81

====

- TESTED_TARGET: KRas G12R (Homo sapiens, UniProt P01116, G12R)
- Sequence (P01116 1-169 isoform P01116-2 G12R): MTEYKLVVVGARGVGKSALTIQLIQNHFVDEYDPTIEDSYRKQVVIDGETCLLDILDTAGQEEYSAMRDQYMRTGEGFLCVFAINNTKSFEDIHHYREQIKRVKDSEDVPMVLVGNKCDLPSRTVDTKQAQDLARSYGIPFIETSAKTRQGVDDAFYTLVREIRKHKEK
- METHOD: biochemical
- CONDITION_DESCRIPTION: Binding to KRas (IC50 nM) G12R, TR-FRET displacement, KRas G12R
Assignment: determine reported IC50 for the given compounds.

Just so you know, measured IC50 for `CCc1c(F)ccc2cc(O)cc(N3CCc4c(nc(OC[C@@]56CCCN5C[C@H](F)C6)nc4N4CCCn5nc(C(=O)OC)cc5C4)C3)c12` came out at < 2 nM

Data point: `CCc1c(F)ccc2cc(O)cc(N3CCc4c(nc(OC[C@@]56CCCN5C[C@H](F)C6)nc4N4CCCn5nc(C(=O)NC(C)C)c(C)c5C4)C3)c12` ; IC50 = < 2 nM

The reported value for O=C1NC(=O)C2CN(c3nc(OCC45CCCN4CCC5)nc4c3CCN(c3cc(O)cc(Cl)c3C3CC3)C4)CC12 (stereo not drawn) in terms of IC50 is 8 nM

====

- TESTED_TARGET: KRas G12A (Homo sapiens, UniProt P01116, G12A)
- Sequence (P01116 1-169 isoform P01116-2 G12A): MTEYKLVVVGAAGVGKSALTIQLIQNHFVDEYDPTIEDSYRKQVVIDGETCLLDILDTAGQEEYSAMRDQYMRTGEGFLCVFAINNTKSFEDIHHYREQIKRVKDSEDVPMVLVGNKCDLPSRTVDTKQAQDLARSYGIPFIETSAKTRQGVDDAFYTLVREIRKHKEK
- Format: binding
- CONDITION_DESCRIPTION: TR-FRET displacement, read-out: Binding to KRas (IC50 nM) G12A
Kindly supply the reported IC50 values for the records listed here.
Give the value in nM but do not write nM after it.

The compound CCc1cccc2cccc(N3CCc4c(nc(OCC5(CN(C)C)CC5)nc4N4CCCOC(CCO)C4)C3)c12 (stereo not drawn) [Example 515] on KRas G12A (Homo sapiens, UniProt P01116, G12A): IC50 was 656

For the compound Cc1cc2[nH]ncc2c(N2CCc3c(nc(OCC45CCCN4CCC5)nc3N3CCCC4(CC(O)C4)C3)C2)c1C (single isomer, unassigned; isomer 1) [Example 453] , the measured IC50 on KRas G12A (Homo sapiens, UniProt P01116, G12A) was 523

The recorded IC50 with KRas G12A (Homo sapiens, UniProt P01116, G12A) for CCc1cccc2cccc(N3CCc4c(nc(OCC5(CN(C)C)CC5)nc4NC4CN(c5nncs5)C4)C3)c12 [Example 674] was 3970

====

- Test system: H358 cells
- METHOD: Inhibition of KRas-mediated phosphorylation of ERK (Cisbio HTRF pERK), H358 cells
- Format: cell-based
- CONDITION_DESCRIPTION: Homo sapiens, NCI-H358, single point at 100 nM, 3 hrs compound incubation
REPORTED_PROPERTY: inhibition at 0.1 µM

Measured inhibition at 0.1 µM, CCc1c(F)ccc2cc(O)cc(N3CCc4c(nc(OC[C@@]56CCCN5C[C@H](F)C6)nc4N4CCCn5nc(C(=O)N(CC)CC)cc5C4)C3)c12 [Example 390] : 98%

Lab note: CCc1c(F)ccc2cc(O)cc(N3CCc4c(nc(OC[C@@]56CCCN5C[C@H](F)C6)nc4N4CCCn5nc(C(=O)NCCOC)cc5C4)C3)c12 [Example 375] gave inhibition at 0.1 µM of 102%

Record CCc1c(F)ccc2cc(O)cc(N3CCc4c(nc(OC[C@@]56CCCN5C[C@H](F)C6)nc4N4CCCn5nc(C(=O)N6CC7CCC(C7)C6)cc5C4)C3)c12 [Example 302] . Reported inhibition at 0.1 µM: 92%

inhibition at 0.1 µM reported for this compound CCc1c(F)ccc2cc(O)cc(N3CCc4c(nc(OC[C@@]56CCCN5C[C@H](F)C6)nc4N4CCCn5nc(NC)c(C)c5C4)C3)c12 [Example 376] : 70%

Reported inhibition at 0.1 µM for CCc1c(F)ccc2cc(O)cc(N3CCc4c(nc(OC[C@@]56CCCN5C[C@H](F)C6)nc4N4CCCn5nc(C(=O)NC6CCC6)cc5C4)C3)c12 [Example 378] was 105%

Field inhibition at 0.1 µM (entry CCc1c(F)ccc2cc(O)cc(N3CCc4c(nc(OC[C@@]56CCCN5C[C@H](F)C6)nc4N4CCCn5nc(C(=O)NC(C)C)c(C)c5C4)C3)c12 [Example 371] ) reads 101%

====

- TESTED_TARGET: KRas G12S (Homo sapiens, UniProt P01116, G12S)
- Sequence (P01116 1-169 isoform P01116-2 G12S): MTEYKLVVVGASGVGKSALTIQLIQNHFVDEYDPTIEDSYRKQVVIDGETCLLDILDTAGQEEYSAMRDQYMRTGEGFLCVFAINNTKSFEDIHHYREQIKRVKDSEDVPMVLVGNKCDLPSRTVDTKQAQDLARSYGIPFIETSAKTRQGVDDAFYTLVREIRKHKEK
- Assay type: binding
- CONDITION_DESCRIPTION: single point, 10 nM compound, read-out: Binding to KRas (% inhibition at 10 nM) G12S
REPORTED_PROPERTY: inhibition at 0.01 µM (%)
State the answer as a number, implicitly in %.

The recorded inhibition at 0.01 µM with KRas G12S (Homo sapiens, UniProt P01116, G12S) for CCc1c(F)ccc2cc(O)cc(N3CCc4c(nc(OC[C@@]56CCCN5C[C@H](F)C6)nc4N4CCCn5nc(C(=O)N6CC7CCC(C6)N7)cc5C4)C3)c12 [Example 265] was 99

Record CCc1c(F)ccc2cc(O)cc(N3CCc4c(nc(OC[C@@]56CCCN5C[C@H](F)C6)nc4N4Cc5cn(C(=O)N(C)C)nc5CC(C)C4)C3)c12 (stereo partly drawn) [Example 422] / KRas G12S (Homo sapiens, UniProt P01116, G12S), inhibition at 0.01 µM recorded as 60

KRas G12S (Homo sapiens, UniProt P01116, G12S) data for CCc1c(F)ccc2cc(O)cc(N3CCc4c(nc(OC[C@@]56CCCN5C[C@H](F)C6)nc4N4CCCn5nnc(Br)c5C4)C3)c12 [Example 284] ; its inhibition at 0.01 µM: 96

// molecule CCNC(=O)c1cc2n(n1)CCCCN(c1nc(OC[C@@]34CCCN3C[C@H](F)C4)nc3c1CCN(c1cc(O)cc4ccc(F)c(CC)c14)C3)C2 [Example 301] , assay KRas G12S (Homo sapiens, UniProt P01116, G12S), inhibition at 0.01 µM value: 97

KRas G12S (Homo sapiens, UniProt P01116, G12S) assay, molecule CCc1c(F)ccc2cc(O)cc(N3CCc4c(nc(OC[C@@]56CCCN5C[C@H](F)C6)nc4N4CCCn5nc(C(=O)N6C[C@@H](C)N[C@@H](C)C6)cc5C4)C3)c12 [Example 303] , recorded inhibition at 0.01 µM = 99

Per the reported KRas G12S (Homo sapiens, UniProt P01116, G12S) data, CCc1c(F)ccc2cc(O)cc(N3CCc4c(nc(OC[C@@]56CCCN5C[C@H](F)C6)nc4N4CCCn5nc(CN(C)C(=O)N(C)C)cc5C4)C3)c12 [Example 288] has inhibition at 0.01 µM of 53

Param item: CCc1c(F)ccc2cc(O)cc(N3CCc4c(nc(OC[C@@]56CCCN5C[C@H](F)C6)nc4N4CCCn5nc(C(=O)N6CC[C@@H]7CC[C@H]6C7)cc5C4)C3)c12 [Example 338] ; param system: KRas G12S (Homo sapiens, UniProt P01116, G12S); output inhibition at 0.01 µM: 97

Sample CCc1c(F)ccc2cc(O)cc(N3CCc4c(nc(OC[C@@]56CCCN5C[C@H](F)C6)nc4N4CCCOCC4)C3)c12 [Example 420] , system: KRas G12S (Homo sapiens, UniProt P01116, G12S). Its inhibition at 0.01 µM is 97

Item CCc1c(F)ccc2cc(O)cc(N3CCc4c(nc(OC[C@@]56CCCN5C[C@H](F)C6)nc4N4CCCn5nc(C(=O)N6CC7CCC(C7)C6)cc5C4)C3)c12 [Example 302] ; assay system KRas G12S (Homo sapiens, UniProt P01116, G12S); inhibition at 0.01 µM reported as 93

Form field inhibition at 0.01 µM for item CCc1c(F)ccc2cc(O)cc(N3CCc4c(nc(OC[C@@]56CCCN5C[C@H](F)C6)nc4N4CCCn5nc(C(=O)NC6CCC6)cc5C4)C3)c12 [Example 378] on KRas G12S (Homo sapiens, UniProt P01116, G12S): 96

I looked up CCc1c(F)ccc2cc(O)cc(N3CCc4c(nc(OC[C@@]56CCCN5C[C@H](F)C6)nc4N4CCCn5nc(C(=O)N6CC7CC6C7)cc5C4)C3)c12 [Example 342] and its inhibition at 0.01 µM for KRas G12S (Homo sapiens, UniProt P01116, G12S) was 99

Here CCc1c(F)ccc2cc(O)cc(N3CCc4c(nc(OC[C@@]56CCCN5C[C@H](F)C6)nc4N4CCCn5nc(C(=O)NC(C)C)c(Cl)c5C4)C3)c12 [Example 386] was tested on KRas G12S (Homo sapiens, UniProt P01116, G12S), and its inhibition at 0.01 µM came to 98
